Attribution: patent US6492416B1

Recorded IC50, μg/ml COX-1 by entry
Target Desc: COX-1 (Mus musculus)
Sequence (P22437 27-602): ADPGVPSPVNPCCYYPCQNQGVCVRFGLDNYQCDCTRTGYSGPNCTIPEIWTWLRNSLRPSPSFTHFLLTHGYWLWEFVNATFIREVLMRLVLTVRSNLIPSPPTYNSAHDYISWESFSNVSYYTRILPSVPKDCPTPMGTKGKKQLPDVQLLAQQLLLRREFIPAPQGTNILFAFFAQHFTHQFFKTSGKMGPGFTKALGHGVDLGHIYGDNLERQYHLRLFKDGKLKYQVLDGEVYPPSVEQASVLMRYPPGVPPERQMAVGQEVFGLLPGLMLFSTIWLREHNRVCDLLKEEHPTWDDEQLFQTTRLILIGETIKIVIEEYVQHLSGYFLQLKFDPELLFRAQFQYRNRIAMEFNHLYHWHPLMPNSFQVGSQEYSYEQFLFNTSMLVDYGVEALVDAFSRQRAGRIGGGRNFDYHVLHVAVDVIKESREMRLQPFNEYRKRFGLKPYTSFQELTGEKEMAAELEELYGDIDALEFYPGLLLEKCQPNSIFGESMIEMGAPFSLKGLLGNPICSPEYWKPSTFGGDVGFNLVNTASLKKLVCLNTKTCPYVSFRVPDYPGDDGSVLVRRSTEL
Protocol Details: Evaluation of COX-1 activity: PGE2 formation in mouse peritoneal macrophages without aspirin and LPS treatment
Assay type: cell-based
Measure Name: IC50, μg/ml COX-1 (µg/mL)

>>> number("CC1(C)OC(c2ccc(S(N)(=O)=O)c(F)c2)=C(c2ccccc2Cl)C1=O [Example 304]")
50
>>> number("CC1(C)OC(c2ccc(S(C)(=O)=O)cc2)=C(c2ccc(F)c(F)c2)C1=O [Example 80]")
5
>>> number("CC1(C)OC(c2ccc(S(C)(=O)=O)c(Br)c2)=C(c2cc(F)ccc2F)C1=O [Example 344]")
200
>>> number("CC1(C)OC(c2ccc(S(N)(=O)=O)cc2)=C(c2cc(F)ccc2F)C1=O [Example 157]")
5.15
>>> number("CC1(C)OC(c2ccc(S(C)(=O)=O)c(F)c2)=C(c2ccc(F)cc2F)C1=O [Example 281]")
10
>>> number("CC1(C)OC(c2ccc(S(C)(=O)=O)c(Br)c2)=C(c2cccc(Cl)c2)C1=O [Example 342]")
30
>>> number("CC1(C)OC(c2ccc(S(C)(=O)=O)c(Br)c2)=C(c2ccccc2)C1=O [Example 341]")
90
>>> number("CC1(C)OC(c2ccc(S(C)(=O)=O)cc2)=C(c2ccc(C=O)s2)C1=O [Example 121]")
30
>>> number("Cc1cccc(C2=C(c3ccc(S(C)(=O)=O)cc3)OC3(CCCC3)C2=O)c1 [Example 255]")
3
>>> number("CC1(C)OC(c2ccc(S(C)(=O)=O)c(F)c2)=C(c2c(F)cccc2F)C1=O [Example 283]")
90
>>> number("Cc1cc(C2=C(c3cc(F)cc(F)c3)C(=O)C(C)(C)O2)ccc1S(N)(=O)=O [Example 384]")
30
>>> number("CC1(C)OC(c2ccc(S(C)(=O)=O)c(F)c2)=C(c2ccc(C(F)(F)F)cc2)C1=O [Example 286]")
5
>>> number("CS(=O)(=O)c1ccc(C2=C(c3ccccc3)C(=O)C3(CCCC3)O2)cc1 [Example 53]")
5
>>> number("CC1(C)OC(c2ccc(S(N)(=O)=O)c(Cl)c2)=C(c2cccc(Cl)c2)C1=O [Example 368]")
7
>>> number("CS(=O)(=O)c1ccc(C2=C(c3cccc(Cl)c3)C(=O)C3(CCOCC3)O2)cc1 [Example 263]")
50
>>> number("CC1(C)OC(c2ccc(S(N)(=O)=O)c(F)c2)=C(c2ccccc2)C1=O [Example 300]")
20
